Recorded IC50, one value per entry.
# ASSAYED TARGET: human MRGPRD (Homo sapiens, UniProt Q8TDS7)
# Sequence (Q8TDS7 whole entry): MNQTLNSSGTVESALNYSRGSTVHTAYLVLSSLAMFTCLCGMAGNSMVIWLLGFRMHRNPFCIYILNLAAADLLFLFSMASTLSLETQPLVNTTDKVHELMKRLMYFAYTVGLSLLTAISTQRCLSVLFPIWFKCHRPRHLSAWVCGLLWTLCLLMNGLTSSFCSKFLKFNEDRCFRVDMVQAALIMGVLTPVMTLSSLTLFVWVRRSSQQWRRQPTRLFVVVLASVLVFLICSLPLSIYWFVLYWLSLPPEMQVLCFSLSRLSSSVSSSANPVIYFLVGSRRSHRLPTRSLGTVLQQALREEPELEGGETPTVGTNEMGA
# PROTOCOL: MRGPRD antagonist activity, IP-One HTRF assay in CHO cells stably expressing human MRGPRD (versus 100 μM β-Alanine agonist)
# Type: cell-based

Consider the worked cases shown below.
Q: Find the recorded IC50 belonging to COc1cccc(-c2nc([C@@H]3CCCN(C(=O)Nc4cc(C#N)on4)C3)n3ccccc23)c1 and report it.
A: < 0.1 µM

Q: Find the recorded IC50 belonging to CN(C)c1ccc(NC(=O)N2CCC[C@@H](c3nc(-c4cccc5c4OCO5)c4ccccn34)C2)cc1 and report it.
A: < 0.1 µM

Q: Find the recorded IC50 belonging to CCN(CC)c1ccc(NC(=O)N2CCC[C@@H](c3nc(-c4cccc(OC)c4)c4ccccn34)C2)cc1 and report it.
A: < 0.1 µM

***
Q: Find the recorded IC50 belonging to COc1cccc(-c2nc(C3CCCN(C(=O)Nc4ccccc4F)C3)n3cc(OC)ccc23)c1 (stereo not shown) and report it.
A: 1 to 3 µM

Q: Find the recorded IC50 belonging to COc1cccc(-c2nc([C@H]3CCCN(C(=O)Nc4ccccc4)C3)n3ccccc23)c1 and report it.
A: 1 to 3 µM

Q: Find the recorded IC50 belonging to COc1cccc(-c2nc(C3CCCN(C(=O)Nc4ccc(C)cc4C)C3)n3ccccc23)c1 (stereo not shown) [Compound 5-4] and report it.
A: 0.1 to 0.5 µM

Q: Find the recorded IC50 belonging to COc1cccc(-c2nn(C3CCCN(C(=O)Nc4ccc(N(C)C)cc4)C3)c3ccccc23)c1 (stereo not shown) and report it.
A: < 0.1 µM

---

# ASSAYED TARGET: human MRGPRD (Homo sapiens)
# PROTOCOL: MRGPRD antagonist activity, IP-One HTRF assay in CHO cells stably expressing human MRGPRD (versus 100 μM β-Alanine agonist)
Recorded IC50, one value per entry.

Consider the worked cases shown below.
Q: Find the recorded IC50 belonging to COc1cccc(-c2nc(C3CCCN(S(=O)(=O)Cc4ccc(F)cc4)C3)n3ccccc23)c1 (stereo not shown) and report it.
A: 100 to 500 nM

Q: Find the recorded IC50 belonging to CN(C)c1ccc(NC(=O)N2CCC[C@@H](c3nc(-c4cccc(C(F)(F)F)c4)c4ccccn34)C2)cc1 and report it.
A: 500 to 1000 nM

Q: Find the recorded IC50 belonging to COc1cccc(-c2nc(C3CCCN(C(=O)Nc4ccc(N(C)C)cc4)C3)n3ncccc23)c1 (stereo not shown) and report it.
A: < 100 nM

***
Q: Find the recorded IC50 belonging to COc1cccc(-c2nc([C@@H]3CCCN(C(=O)NC4CCS(=O)(=O)CC4)C3)n3ccccc23)c1 and report it.
A: 100 to 500 nM

---

# ASSAYED TARGET: human MRGPRD (Homo sapiens)
# PROTOCOL: MRGPRD antagonist activity, IP-One HTRF assay in CHO cells stably expressing human MRGPRD (versus 100 μM β-Alanine agonist)
Recorded IC50, one value per entry.

Q: Find the recorded IC50 belonging to COc1cccc(-c2nc([C@@H]3CCCN(C(=O)Nc4ccc(N(C)C)cc4C)C3)n3ccccc23)c1 [Compound 1-8] and report it.
A: < 100 nM

Q: Find the recorded IC50 belonging to COc1cccc(-c2nc([C@H]3CCCN3C(=O)Nc3ccc(N(C)C)cc3)n3ccccc23)c1 [Compound 21-6] and report it.
A: > 3000 nM

Q: Find the recorded IC50 belonging to COc1cccc(-c2nc([C@H]3CCCN(C(=O)Cc4cccc(F)c4)C3)n3ccccc23)c1 [Compound 12-16] and report it.
A: 1000 to 3000 nM

Q: Find the recorded IC50 belonging to COc1cccc(-c2nc(C3CCCN(C(=O)Nc4ccccc4OC)C3)n3ccccc23)c1 (stereo not shown) [Compound 3-8] and report it.
A: 100 to 500 nM

Q: Find the recorded IC50 belonging to CN(C)c1ccc(NC(=O)N2CCC[C@@H](c3nc(-c4cccc(-c5ccccc5)c4)c4ccccn34)C2)cc1 [Compound 10-10] and report it.
A: > 3000 nM

Q: Find the recorded IC50 belonging to O=C(Nc1ccccc1F)N1CCCC(c2nc(-c3cccnc3)c3ccccn23)C1 (stereo not shown) [Compound 11-6] and report it.
A: > 3000 nM

***
Q: Find the recorded IC50 belonging to COc1cccc(-c2nc([C@@H]3CCCN(C(=O)Nc4ccc5c(c4)COCO5)C3)n3ccccc23)c1 [Compound 5-57] and report it.
A: < 100 nM

---

# ASSAYED TARGET: human MRGPRD (Homo sapiens, UniProt Q8TDS7)
# PROTOCOL: MRGPRD antagonist activity, IP-One HTRF assay in CHO cells stably expressing human MRGPRD (versus 100 μM β-Alanine agonist)
PROPERTY MEASURED: IC50

Q: Find the recorded IC50 belonging to CC(O)c1cccc(-c2nc([C@@H]3CCCN(C(=O)Nc4ccc(N(C)C)cc4)C3)n3ccccc23)c1 (stereo partly drawn) [Compound 10-18] and report it.
A: 100 to 500 nM

***
Q: Find the recorded IC50 belonging to COc1cccc(-c2nc(C3CCCN(C(=O)Nc4cccc(F)c4)C3)n3ccccc23)c1 (stereo not drawn) [Compound 3-3] and report it.
A: 100 to 500 nM

Q: Find the recorded IC50 belonging to CN(C)c1ccc(NC(=O)N2CCC[C@@H](c3nc(-c4ccccc4C(F)(F)F)c4ccccn34)C2)cc1 [Compound 10-3] and report it.
A: 500 to 1000 nM

Q: Find the recorded IC50 belonging to COc1cccc(-c2nc(C3CCCN(C(=O)Nc4cccc(N(C)C)c4)C3)n3ccccc23)c1 (stereo not drawn) [Compound 3-24] and report it.
A: 100 to 500 nM

Q: Find the recorded IC50 belonging to COc1cccc(-c2nc([C@@H]3CCCN(C(=O)Nc4cnc(N(C)C)nc4)C3)n3ccccc23)c1 [Compound 5-72] and report it.
A: < 100 nM

Q: Find the recorded IC50 belonging to COc1cccc(-c2nc([C@@H]3CCCN(C(=O)NCCS(C)(=O)=O)C3)n3ccccc23)c1 [Compound 5-52] and report it.
A: 100 to 500 nM

Q: Find the recorded IC50 belonging to COc1cccc(-c2nc(C3CCCN(C(=O)NCC4CC4)C3)n3ccccc23)c1 (stereo not drawn) [Compound 3-14] and report it.
A: > 3000 nM

Q: Find the recorded IC50 belonging to COc1cccc(-c2nc([C@H]3CCCN(S(=O)(=O)Cc4ccc(F)cc4)C3)n3ccccc23)c1 [Compound 16-8] and report it.
A: 1000 to 3000 nM

Q: Find the recorded IC50 belonging to CCOCn1cc(NC(=O)N2CCC[C@@H](c3nc(-c4cccc(OC)c4)c4ccccn34)C2)cn1 [Compound 5-49] and report it.
A: < 100 nM

Q: Find the recorded IC50 belonging to COc1cccc(-c2nc(-c3ccc(C(=O)Nc4ccc(N(C)C)cc4)s3)n3ccccc23)c1 [Compound 25-1] and report it.
A: 1000 to 3000 nM

Q: Find the recorded IC50 belonging to CN(C)c1ccc(NC(=O)N2CCC[C@@H](c3nc(-c4ccccc4Cl)c4ccccn34)C2)cc1 [Compound 10-8] and report it.
A: 500 to 1000 nM

Q: Find the recorded IC50 belonging to COc1cccc(-c2nc(C3CCCN(C(=O)c4ccc(C)cc4C)C3)n3ccccc23)c1 (stereo not drawn) [Compound 12-8] and report it.
A: 1000 to 3000 nM

Q: Find the recorded IC50 belonging to COc1cccc(-c2nc([C@@H]3CCCN(C(=O)Nc4ccc5c(cnn5C)c4)C3)n3ccccc23)c1 [Compound 1-32] and report it.
A: < 100 nM

Q: Find the recorded IC50 belonging to COC(=O)c1cccc(-c2nc([C@@H]3CCCN(C(=O)Nc4ccc(N(C)C)cc4)C3)n3ccccc23)c1 [Compound 10-70] and report it.
A: < 100 nM

Q: Find the recorded IC50 belonging to COc1cccc(-c2nc([C@@H]3CCCN(C(=O)NCCCN(C)C)C3)n3ccccc23)c1 [Compound 1-27] and report it.
A: 500 to 1000 nM

---

# ASSAYED TARGET: UniProt Q8TDS7
# PROTOCOL: MRGPRD antagonist activity, IP-One HTRF assay in CHO cells stably expressing human MRGPRD (versus 100 μM β-Alanine agonist)
pIC50: −log10 of the molar value.
PROPERTY MEASURED: pIC50

Q: Find the recorded pIC50 belonging to COc1cccc(-c2nc([C@@H]3CCCN(C(=O)Nc4ccc(-n5cccn5)cc4)C3)n3ccccc23)c1 [Compound 5-16] and report it.
A: > 7.00

Q: Find the recorded pIC50 belonging to COc1cccc(-c2nc([C@@H]3CCCN(C(=O)NC4CCN(C)CC4)C3)n3ccccc23)c1 [Compound 5-64] and report it.
A: 6.00 to 6.30

Q: Find the recorded pIC50 belonging to COc1cccc(-c2nc([C@@H]3CCCN(C(=O)Nc4ccc5c(c4)CCC(C)(C)O5)C3)n3ccccc23)c1 [Compound 5-47] and report it.
A: > 7.00

Q: Find the recorded pIC50 belonging to COc1cccc(-c2nc([C@@H]3CCCN(C(=O)Nc4cccc(C#N)c4)C3)n3ccccc23)c1 [Compound 1-16] and report it.
A: 6.30 to 7.00

Q: Find the recorded pIC50 belonging to CNC(=O)N1CCC[C@@H](c2nc(-c3cccc(OC)c3)c3ccccn23)C1 [Compound 2-1] and report it.
A: < 5.52

Q: Find the recorded pIC50 belonging to CN(C)c1ccc(NC(=O)N2CCC[C@@H](c3nc(-c4cn(S(=O)(=O)c5ccccc5)c5ccccc45)c4ccccn34)C2)cc1 [Compound 10-54] and report it.
A: 6.00 to 6.30

Q: Find the recorded pIC50 belonging to COc1cccc(-c2nc(C3CCCN(C(=O)Nc4ccc(C)cc4F)C3)n3ccccc23)c1 (stereo not drawn) [Compound 5-3] and report it.
A: 6.00 to 6.30

Q: Find the recorded pIC50 belonging to CN(C)c1ccc(NC(=O)N2CCC[C@@H](c3nc(-c4csc5ccccc45)c4ccccn34)C2)cc1 [Compound 10-47] and report it.
A: 6.30 to 7.00

Q: Find the recorded pIC50 belonging to COc1cccc(-c2nc([C@@H]3CCCN(C(=O)Nc4ccc(CN(C)C)cc4)C3)n3ccccc23)c1 [Compound 1-26] and report it.
A: 6.30 to 7.00

Q: Find the recorded pIC50 belonging to COc1cccc(-c2nc([C@@H]3CCCN(C(=O)N[C@H]4CC[C@@H](O)CC4)C3)n3ccccc23)c1 [Compound 5-56] and report it.
A: 6.30 to 7.00

***
Q: Find the recorded pIC50 belonging to COc1cccc(-c2nc(C3CCCN(S(=O)(=O)Cc4ccccc4F)C3)n3ccccc23)c1 (stereo not drawn) [Compound 16-5] and report it.
A: < 5.52

Q: Find the recorded pIC50 belonging to COc1cccc(-c2nc(C3CCCN(C(=O)Nc4ccc(OC)c(OC)c4)C3)n3ccccc23)c1 (stereo not drawn) [Compound 4-1] and report it.
A: 6.30 to 7.00

Q: Find the recorded pIC50 belonging to COc1cccc(-c2nn([C@H]3CCCN(C(=O)Nc4ccc(N(C)C)cc4)C3)c3ncccc23)c1 [Compound 20-4] and report it.
A: 5.52 to 6.00

Q: Find the recorded pIC50 belonging to O=C(Nc1ccccc1F)N1CCCC(c2nc(-c3ccccn3)c3ccccn23)C1 (stereo not drawn) [Compound 11-11] and report it.
A: < 5.52

Q: Find the recorded pIC50 belonging to CN(C)c1ccc(NC(=O)N2CCC[C@@H](c3nc(-c4cc5ccccc5s4)c4ccccn34)C2)cc1 [Compound 10-61] and report it.
A: < 5.52

Q: Find the recorded pIC50 belonging to COCCCc1nc([C@@H]2CCCN(C(=O)Nc3ccc(N(C)C)cc3)C2)n2ccccc12 [Compound 10-41] and report it.
A: 5.52 to 6.00

Q: Find the recorded pIC50 belonging to CCc1ccccc1-c1nc([C@@H]2CCCN(C(=O)Nc3ccc(N(C)C)cc3)C2)n2ccccc12 [Compound 10-21] and report it.
A: 6.30 to 7.00

Q: Find the recorded pIC50 belonging to COc1cccc(-c2nc(C3CCCN(C(=O)Nc4ccccc4F)C3)n3cc(C)ccc23)c1 (stereo not drawn) [Compound 18-1] and report it.
A: 6.30 to 7.00

Q: Find the recorded pIC50 belonging to CN(C)c1ccc(NC(=O)N2CCC[C@@H](c3nc(-c4ccccc4S(C)(=O)=O)c4ccccn34)C2)cc1 [Compound 10-66] and report it.
A: < 5.52

Q: Find the recorded pIC50 belonging to COc1cccc(-c2nc([C@H]3CCCN(C(=O)Nc4ccc(N(C)C)cc4)C3)n3ccccc23)c1 [Compound 1-5] and report it.
A: 5.52 to 6.00

Q: Find the recorded pIC50 belonging to CN(C)c1ccc(NC(=O)N2CCC[C@@H](c3nc(-c4ccc5c(c4)CCC5)c4ccccn34)C2)cc1 [Compound 10-26] and report it.
A: 6.00 to 6.30

Q: Find the recorded pIC50 belonging to Cc1ccccc1-c1nc(C2CCCN(C(=O)Nc3ccccc3F)C2)n2ccccc12 (stereo not drawn) [Compound 11-1] and report it.
A: 5.52 to 6.00

Q: Find the recorded pIC50 belonging to O=C(Nc1ccccc1F)N1CCCC(c2nc(-c3cccc(F)c3)c3ccccn23)C1 (stereo not drawn) [Compound 11-5] and report it.
A: 5.52 to 6.00

Q: Find the recorded pIC50 belonging to COc1cccc(-c2nc(C3CCCN(C(=O)N(C)c4ccccc4F)C3)n3ccccc23)c1 (stereo not drawn) [Compound 1-3] and report it.
A: 5.52 to 6.00

Q: Find the recorded pIC50 belonging to COc1cccc(-c2nc([C@@H]3CCN(C(=O)Nc4ccccc4F)C3)n3ccccc23)c1 [Compound 21-1] and report it.
A: 6.00 to 6.30

Q: Find the recorded pIC50 belonging to COc1cccc(-c2nc([C@@H]3CCCN(C(=O)Nc4ccc5c(c4)CN(C)C5)C3)n3ccccc23)c1 [Compound 5-53] and report it.
A: > 7.00

Q: Find the recorded pIC50 belonging to COc1cccc(-c2nc(C3CCCN(C(=O)c4ccc(F)cc4C)C3)n3ccccc23)c1 (stereo not drawn) [Compound 12-10] and report it.
A: 5.52 to 6.00

Q: Find the recorded pIC50 belonging to Cc1ccc(-c2nc(C3CCCN(C(=O)Nc4ccccc4F)C3)n3ccccc23)cc1 (stereo not drawn) [Compound 11-7] and report it.
A: 5.52 to 6.00

Q: Find the recorded pIC50 belonging to COc1cccc(-c2nc([C@@H]3CCCN(C(=O)Nc4ccc5ncsc5c4)C3)n3ccccc23)c1 [Compound 5-65] and report it.
A: > 7.00

Q: Find the recorded pIC50 belonging to COc1cccc(-c2nc(C3CCCN(C(=O)Nc4ccccc4C)C3)n3ccccc23)c1 (stereo not drawn) [Compound 3-4] and report it.
A: 5.52 to 6.00
